Hey, just so you know, these numbers are from paper PMC3820767.

Test system: Pseudomonas aeruginosa MMX103-ATCC 27853
Experiment: Broth microdilution susceptibility testing (CLSI)
Format: cell-based
Metric name: MIC Pseudomonas aeruginosa 103-27853

Input: Quick check: MIC Pseudomonas aeruginosa 103-27853 on Pseudomonas aeruginosa MMX103-ATCC 27853, item "CN(C)c1ccc(/C=C/c2cc(C(C)(C)C)[o+]c(C(C)(C)C)c2)cc1" ?
Output: >8 µg/mL

Input: Quick check: MIC Pseudomonas aeruginosa 103-27853 on Pseudomonas aeruginosa MMX103-ATCC 27853, item "CC[n+]1c(/C=C/C=C2C=C(/C=C/N(C)c3ccccc3)CC(C)(C)C/2)sc2ccccc21.[I-]" ?
Output: >16 µg/mL

Input: Quick check: MIC Pseudomonas aeruginosa 103-27853 on Pseudomonas aeruginosa MMX103-ATCC 27853, item "CC[n+]1c(/C=C2C=C(/C=C/N(C)c3ccccc3)CC(C)(C)C/2)sc2ccccc21" ?
Output: >64 µg/mL

Input: Quick check: MIC Pseudomonas aeruginosa 103-27853 on Pseudomonas aeruginosa MMX103-ATCC 27853, item "Oc1ccc2ccccc2c1C(c1ccc(Cl)cc1)c1c(O)ccc2ccccc12" ?
Output: >32 µg/mL

Input: Quick check: MIC Pseudomonas aeruginosa 103-27853 on Pseudomonas aeruginosa MMX103-ATCC 27853, item "Oc1ccccc1Oc1c(F)c(F)c(-c2c(F)c(F)c(Oc3ccccc3O)c(F)c2F)c(F)c1F" ?
Output: >4 µg/mL

====

Test: Cytotoxicity by MTT assay
Format: cell-based, human
Details: human, Jurkat cells; concentration resulting in 50% cell survival, MTT, 4 h; read-out: Cytotoxicity (C50%) Jurkat
Kindly supply the reported IC50 at 4 h values for the records listed here.
// note: answer is a bare numeric in µM

Input: Fill blank: measured IC50 at 4 h of the molecule "CN1/C(=C/C=C/c2cc(-c3ccccc3)cc(-c3ccccc3)[o+]2)C(C)(C)c2ccccc21" is ____.
Output: 14.5

Input: Fill blank: measured IC50 at 4 h of the molecule "CN(C)c1ccc(/C=C/c2cc(-c3ccccc3)[o+]c(-c3ccccc3)c2)cc1" is ____.
Output: 18.6

====

Assay: Surface Plasmon Resonance binding to immobilized 3-Lipid II
Settings: Table S3; SPR, initial determination at 10 µM
Metric name: Binding on Lipid II?

Sample records with Binding on Lipid II?:
CCN1/C(=C\C=C\c2sc3c4ccccc4[se]c3[n+]2CC)Sc2c1[se]c1ccccc21
Yes
CCN(CC)c1ccc(CN2CCN(c3cccc(C(F)(F)F)c3)CC2)cc1
Yes
FC(F)(F)c1cccc(N2CCN(CCc3ccccc3)CC2)c1
Yes
Cc1cc(C2c3ccccc3-c3ccccc32)cc(C)c1O
Yes
O=C(CSc1nc(-c2ccccc2)c(-c2ccccc2)n1-c1ccccc1)N1CCCc2ccccc21
No
Oc1ccc2ccccc2c1C(c1ccc(Cl)cc1)c1c(O)ccc2ccccc12
Yes

Input: Fill blank: measured Binding on Lipid II? of the molecule "CC(C)(C)c1csc(N2N=C(c3ccccc3)C(=NNc3ccccc3)C2=O)n1" is ____.
Output: No

Input: Fill blank: measured Binding on Lipid II? of the molecule "CN1/C(=C/C=C/c2cc(-c3ccccc3)cc(-c3ccccc3)[o+]2)C(C)(C)c2ccccc21" is ____.
Output: Yes

====

Tested on: Enterococcus faecalis MMX101-ATCC 29212
Experiment: Broth microdilution susceptibility testing (CLSI)
Type: cell-based
Metric name: MIC Enterococcus faecalis 101-29212 (µg/mL)
// note: answer is a bare numeric in µg/mL

Input: Fill blank: measured MIC Enterococcus faecalis 101-29212 of the compound "CN(C)c1ccc(/C=C/c2cc(C(C)(C)C)[o+]c(C(C)(C)C)c2)cc1" is ____.
Output: 2

Input: Fill blank: measured MIC Enterococcus faecalis 101-29212 of the compound "CC[n+]1c(/C=C2C=C(/C=C/N(C)c3ccccc3)CC(C)(C)C/2)sc2ccccc21" is ____.
Output: 16

Input: Fill blank: measured MIC Enterococcus faecalis 101-29212 of the compound "Oc1ccccc1Oc1c(F)c(F)c(-c2c(F)c(F)c(Oc3ccccc3O)c(F)c2F)c(F)c1F" is ____.
Output: 1

Input: Fill blank: measured MIC Enterococcus faecalis 101-29212 of the compound "CC[n+]1c(/C=C/C=C2C=C(/C=C/N(C)c3ccccc3)CC(C)(C)C/2)sc2ccccc21.[I-]" is ____.
Output: 16

Input: Fill blank: measured MIC Enterococcus faecalis 101-29212 of the compound "Oc1ccc2ccccc2c1C(c1ccc(Cl)cc1)c1c(O)ccc2ccccc12" is ____.
Output: 1
